# CONDITION DETAILS: in toluene, 308.15 K

[
  {
    "COMPOUND": "COCC(=O)Nc1c(I)c(C(=O)NCC(O)CO)c(I)c(C(=O)N(C)CC(O)CO)c1I (stereo unspecified)",
    "solubility (mole fraction)": "1.83e-05"
  }
]

====

# CONDITION DETAILS: in ethanol, 293.15 K
EXPERIMENTAL ENDPOINT: solubility (mole fraction)

[
  {
    "COMPOUND": "COCC(=O)Nc1c(I)c(C(=O)NCC(O)CO)c(I)c(C(=O)N(C)CC(O)CO)c1I (stereo unspecified)",
    "EXPERIMENTAL ENDPOINT": "solubility (mole fraction)",
    "MEASURED VALUE": 0.000296
  }
]

====

# CONDITION DETAILS: in methanol, 283.15 K

[
  {
    "MOLECULE": "COCC(=O)Nc1c(I)c(C(=O)NCC(O)CO)c(I)c(C(=O)N(C)CC(O)CO)c1I (stereo unspecified)",
    "solubility (mole fraction)": 0.000349
  }
]

====

# CONDITION DETAILS: in isopropanol, 288.15 K
EXPERIMENTAL ENDPOINT: solubility (mole fraction)

[
  {
    "MOLECULE": "COCC(=O)Nc1c(I)c(C(=O)NCC(O)CO)c(I)c(C(=O)N(C)CC(O)CO)c1I (stereo unspecified)",
    "EXPERIMENTAL ENDPOINT": "solubility (mole fraction)",
    "MEASURED VALUE": "9.01e-05"
  }
]

====

# CONDITION DETAILS: in methanol, 318.15 K
EXPERIMENTAL ENDPOINT: solubility (mole fraction)

[
  {
    "MOLECULE": "COCC(=O)Nc1c(I)c(C(=O)NCC(O)CO)c(I)c(C(=O)N(C)CC(O)CO)c1I (stereo unspecified)",
    "EXPERIMENTAL ENDPOINT": "solubility (mole fraction)",
    "MEASURED VALUE": 0.000997
  }
]

====

# CONDITION DETAILS: in acetone, 318.15 K

[
  {
    "COMPOUND": "COCC(=O)Nc1c(I)c(C(=O)NCC(O)CO)c(I)c(C(=O)N(C)CC(O)CO)c1I (stereo unspecified)",
    "solubility (mole fraction)": 0.000171
  }
]

====

# CONDITION DETAILS: in toluene, 293.15 K
EXPERIMENTAL ENDPOINT: solubility (mole fraction)

[
  {
    "COMPOUND": "COCC(=O)Nc1c(I)c(C(=O)NCC(O)CO)c(I)c(C(=O)N(C)CC(O)CO)c1I (stereo unspecified)",
    "MEASURED VALUE": "1.43e-05"
  }
]
